Reference source: paper PMC10786891

# target_desc: T1, EsCas13d, nuclease-dead (Eubacterium siraeum, UniProt B0MS50, R295A;H300A;R849A;H854A)
# T1 sequence: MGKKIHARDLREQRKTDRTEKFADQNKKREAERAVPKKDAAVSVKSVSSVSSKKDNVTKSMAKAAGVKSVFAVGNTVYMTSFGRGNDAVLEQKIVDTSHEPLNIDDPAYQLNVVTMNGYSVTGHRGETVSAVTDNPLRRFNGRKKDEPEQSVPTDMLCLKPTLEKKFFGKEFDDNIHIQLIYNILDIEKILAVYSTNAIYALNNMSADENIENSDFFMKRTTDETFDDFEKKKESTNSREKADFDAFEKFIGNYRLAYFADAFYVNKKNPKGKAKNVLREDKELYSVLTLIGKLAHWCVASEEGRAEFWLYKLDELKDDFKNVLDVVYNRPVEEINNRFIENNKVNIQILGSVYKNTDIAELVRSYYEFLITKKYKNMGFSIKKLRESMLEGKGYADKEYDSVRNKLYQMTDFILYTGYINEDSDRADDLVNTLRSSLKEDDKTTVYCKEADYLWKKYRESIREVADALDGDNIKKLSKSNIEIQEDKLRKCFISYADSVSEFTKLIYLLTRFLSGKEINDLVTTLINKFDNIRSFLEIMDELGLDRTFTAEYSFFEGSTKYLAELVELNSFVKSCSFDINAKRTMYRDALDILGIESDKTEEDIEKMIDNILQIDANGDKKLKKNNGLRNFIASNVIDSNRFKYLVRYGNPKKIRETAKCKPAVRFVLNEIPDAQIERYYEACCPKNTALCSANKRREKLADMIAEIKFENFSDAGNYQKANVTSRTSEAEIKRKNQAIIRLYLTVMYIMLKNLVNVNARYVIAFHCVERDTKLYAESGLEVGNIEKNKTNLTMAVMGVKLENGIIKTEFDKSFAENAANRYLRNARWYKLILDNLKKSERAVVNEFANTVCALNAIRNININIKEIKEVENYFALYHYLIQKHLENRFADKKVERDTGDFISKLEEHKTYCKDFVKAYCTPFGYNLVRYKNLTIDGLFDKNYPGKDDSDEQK
# assay_explanation: crRNA (strand 1, pre-loaded); Mg2+; 40 mM Tris-HCl pH 7.5, 150 mM NaCl, 6 mM MgCl2, 1 mM DTT, 0.1% Tween-20, 0.2 mg/ml BSA; 25 C; 10 min per concentration, then washed
# measurement_conditions: tags: His6-TwinStrep-SUMO cleaved; N-terminal SNAP kept (SNAP-Surface 488); label: 3' end held by stalled T7 RNA polymerase
property_name: pKd
Please treat pKd as minus the base-10 logarithm of the molar concentration.

Answered examples (6):
binder="target 2 MT 5'PFS GCU 3'PFS CUU (mixed) RNA 1: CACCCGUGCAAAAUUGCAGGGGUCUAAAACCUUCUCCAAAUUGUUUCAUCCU RNA 2: GGGAAUGGAUCCACAUCUACGAAUUCGCUAGGAUGAAACAAUUUGGAGAAGCUUAGAUCGGAAGAGCACACGU" observed_result=7.76
binder="target 2 MT 5'PFS CAC 3'PFS CGC (mixed) RNA 1: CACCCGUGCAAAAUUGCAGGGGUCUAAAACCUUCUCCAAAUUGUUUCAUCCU RNA 2: GGGAAUGGAUCCACAUCUACGAAUUCCACAGGAUGAAACAAUUUGGAGAAGCGCAGAUCGGAAGAGCACACGU" observed_result=8.77
binder="target 2 MT 5'PFS GUG 3'PFS CGC (mixed) RNA 1: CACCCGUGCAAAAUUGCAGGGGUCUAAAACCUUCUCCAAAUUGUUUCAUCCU RNA 2: GGGAAUGGAUCCACAUCUACGAAUUCGUGAGGAUGAAACAAUUUGGAGAAGCGCAGAUCGGAAGAGCACACGU" observed_result=8.02
binder="target 1 insC 3' of 12,insA 3' of 3 (mixed) RNA 1: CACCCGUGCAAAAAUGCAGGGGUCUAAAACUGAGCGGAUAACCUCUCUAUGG RNA 2: GGGAAUGGAUCCACAUCUACGAAUUCGUACCAUAGAGAGGCUUAUCCGCUACACCGAGAUCGGAAGAGCACACGU" observed_result=8.03
binder="target 2 MT 5'PFS GAG 3'PFS ACC (mixed) RNA 1: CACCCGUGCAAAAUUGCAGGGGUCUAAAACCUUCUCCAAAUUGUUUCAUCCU RNA 2: GGGAAUGGAUCCACAUCUACGAAUUCGAGAGGAUGAAACAAUUUGGAGAAGACCAGAUCGGAAGAGCACACGU" observed_result=7.85
binder="target 2 MT 5'PFS GUC 3'PFS AGA (mixed) RNA 1: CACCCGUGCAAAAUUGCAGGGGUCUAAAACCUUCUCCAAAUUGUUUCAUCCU RNA 2: GGGAAUGGAUCCACAUCUACGAAUUCGUCAGGAUGAAACAAUUUGGAGAAGAGAAGAUCGGAAGAGCACACGU" observed_result=7.77

Look up pKd: target 1 C2G,G5U (mixed) RNA 1: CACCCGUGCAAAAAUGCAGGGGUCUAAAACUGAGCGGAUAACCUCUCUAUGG RNA 2: GGGAAUGGAUCCACAUCUACGAAUUCGUACCAUAGAGAGGUUAUCCUCUGACCGAGAUCGGAAGAGCACACGU 7.66
